Just for reference, PubChem BioAssay is where these values come from.

Exercise: state measured z-score for each of the molecules provided.
experiment: FRG1 promoter luciferase signal modulators, primary screen, FRG1 inhibition for FSHD, cell-based, C2C12 myotubes, firefly/Renilla luciferase, luminescence (AID 1084); details: higher = more signal, called active from +8 up or from −8 down
Answers are plain numbers.

Batch of 4 molecules: report z-score for each.
1. COc1cccc(C)c1NC(=O)O[C@H]1[C@H](OC(=O)Nc2ccccc2)[C@@H](OC(=O)Nc2ccccc2)[C@@H](OC)O[C@@H]1CO
2. O=C1C2C=CC(C(O)C3CC=CCC3)N(Nc3ccc([N+](=O)[O-])cc3)C2C(=O)N1c1ccccc1 (centres undefined)
3. COCCCNC(=O)[C@]1(Cc2ccccc2N=[N+]=[N-])N=C(c2ccc(OCCCO)cc2)O[C@@H]1c1ccccc1
4. [N-]=[N+]=NCc1ccccc1C[C@]1(C(=O)N2CCCCC2)COC(c2ccc(OCCCO)cc2)=N1

Result:
1. 0.91
2. -1.06
3. -2.74
4. -4.13
